- assayedSystem: T1, AAV9
- T1 construct: also called adeno-associated virus serotype 9
- testMethodNotes: SPR, AAV on CM5 chip;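 further: surface plasmon resonance with AAV amine-coupled to the chip as ligand, nanobodies injected as analyte over a concentration series, rate constants and affinity fitted from binding curves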
propertyLabel: Kd (nM)
Number only, in nM; omit the unit.

Examples from the recorded data:
A4-032 (VHH) VHH: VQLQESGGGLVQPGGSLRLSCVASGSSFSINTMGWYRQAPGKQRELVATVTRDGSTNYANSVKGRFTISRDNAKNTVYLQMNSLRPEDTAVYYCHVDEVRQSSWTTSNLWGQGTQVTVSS
16.4
A4-038 (VHH) VHH: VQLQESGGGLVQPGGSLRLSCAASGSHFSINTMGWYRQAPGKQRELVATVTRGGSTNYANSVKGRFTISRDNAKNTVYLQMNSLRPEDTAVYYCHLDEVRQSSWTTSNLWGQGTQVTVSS
7.29

Now examine the next entry.
What Kd value was documented for this binder, A4-034 (VHH) VHH: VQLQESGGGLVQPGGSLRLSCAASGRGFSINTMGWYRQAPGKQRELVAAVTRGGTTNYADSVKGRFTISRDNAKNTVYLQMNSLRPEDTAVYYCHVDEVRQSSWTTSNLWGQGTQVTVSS ? 6.8
